measured-attribute: melting point

Enquiry: What melting point value was documented for this molecule, CCNc1nc(C)nc(O)c1C(C)C ?
Return: 180 °C

Enquiry: What melting point value was documented for this molecule, CC1(C)NC(=O)N(CC(CS(=O)(=O)C2(C(F)(F)F)C=CC(c3ccccc3)=CC2)N(O)C=O)C1=O (stereo unspecified) ?
Return: 206 °C

Enquiry: What melting point value was documented for this molecule, Nc1cc2n(n1)CCOC2 ?
Return: 74 to 76 °C

Enquiry: What melting point value was documented for this molecule, CCSc1ccc(C(=O)NCc2ccc3c(c2)C(=O)N(C2CCC(=O)NC2=O)C3=O)nn1 (stereo unspecified) ?
Return: 205 to 207 °C

Enquiry: What melting point value was documented for this molecule, COC(=O)CCC(=O)N(O)Cc1c(C)n(C(=O)c2ccc(Cl)cc2)c2ccc(OC)cc12 ?
Return: 158 °C

Enquiry: What melting point value was documented for this molecule, CN(C(=O)CN(C(=O)CNC(=O)Nc1cccc(CO)c1)c1ccccc1)c1ccccc1 ?
Return: 120 °C

Enquiry: What melting point value was documented for this molecule, Cc1oc(-c2ccc(F)cc2)nc1COc1cccc2cc(NS(=O)(=O)C(F)(F)F)ccc12 ?
Return: 178 to 180 °C

Enquiry: What melting point value was documented for this molecule, Fc1ccc(Oc2ccc(-c3ccn(-c4ncccn4)n3)cc2)cc1 ?
Return: 123 to 125 °C

Enquiry: What melting point value was documented for this molecule, O=C1c2c(O)ccc(O)c2C(=O)c2c(NCCNCCO)ccc(NCCNCCO)c21 ?
Return: 175 to 177 °C

Enquiry: What melting point value was documented for this molecule, CC1(C)CC(=O)C(=C(O)COc2ccc(Cl)cc2Cl)C(=O)C1 ?
Return: 170 to 175 °C

Enquiry: What melting point value was documented for this molecule, CC(C)(C)C(O)(Cn1cncn1)C(=O)C=Cc1ccc(Cl)cc1 (stereo unspecified) ?
Return: 83 to 85 °C

###

Would you kindly list melting point for each of these compounds?
Starred links: 1 amine or outer side, 2 acyl side, 3 side chain; linkers in the order of their positions; H or OH if unused. Residues, ends and D or L forms follow the SMILES beside them. Glutaryl = O=C(CCCC(=O)[*:2])[*:1]

Enquiry: What melting point value was documented for this compound, Cc1nc2cc(Oc3ncccc3C(=O)NCc3ccc(C(C)(C)O)cc3)ccc2s1 ?
Return: 124 to 126 °C

Enquiry: What melting point value was documented for this compound, OC(CCn1ccnc1)c1ccccc1 (stereo unspecified) ?
Return: 106 to 108 °C

Enquiry: What melting point value was documented for this compound, CCOC(=O)c1c[nH]c2c(=O)ccc(Cl)cc2c1=O ?
Return: 138 to 140 °C

Enquiry: What melting point value was documented for this compound, O=C(CNN1C(=O)c2ccccc2S1(=O)=O)N[C@@H](Cc1ccccc1)C(=O)O ?
Return: 201 to 204 °C

Enquiry: What melting point value was documented for this compound, COc1nc2cc(Cl)c(Cl)c(-c3nnnn3CCCO)c2nc1OC ?
Return: 188 to 189 °C

Enquiry: What melting point value was documented for this compound, CC(=C1SCCCS1)c1ccc(Oc2ccc(O)cc2)cc1 ?
Return: 84.5 °C

Enquiry: What melting point value was documented for this compound, Nc1cccc(-c2nc3sccn3c2-c2ccnc(N[C@@H]3CCCN(S(=O)(=O)c4ccc(Cl)cc4)C3)n2)c1 ?
Return: 226 to 228 °C

Enquiry: What melting point value was documented for this compound, COC(=O)C(C)N(C(=O)CCl)c1c(C)cccc1C (stereo unspecified) ?
Return: 92 to 94 °C

Enquiry: What melting point value was documented for this compound, CCCCCCCCCCCCCCOc1ccc(COC(=O)NCc2ccccn2)cc1 ?
Return: 67 to 68 °C

Enquiry: What melting point value was documented for this compound, CCNC(=O)C1CCCN1C(=O)C(C)NC(=O)C(C)NC(=O)CCCC(=O)O (stereo not drawn) (Glutaryl-Ala-Ala-Pro-NHEt; configuration not given here) ?
Return: 154 to 156 °C

Enquiry: What melting point value was documented for this compound, Nc1ccc(CCC(=O)N2CCCCC2)cc1[N+](=O)[O-] ?
Return: 140 to 141 °C

Enquiry: What melting point value was documented for this compound, CON=C1CN(c2cc3c(cc2F)c(=O)c(C(=O)O)cn3-c2ccc(F)cc2F)CC12CN(C(=O)OC(C)(C)C)C2 ?
Return: 263 to 264 °C

Enquiry: What melting point value was documented for this compound, COc1ccn2nc(-c3ccccc3F)c(-c3ccc(=O)n(C(C)C)n3)c2c1 ?
Return: 174 to 175 °C

Enquiry: What melting point value was documented for this compound, CC(C)(COc1ccc2ncc(Cl)n2n1)CS(N)(=O)=O ?
Return: 197 to 200 °C

Enquiry: What melting point value was documented for this compound, CCc1ccc2nc(C)c(S(=O)(=O)NC(=O)Nc3nc(OC)cc(OC)n3)n2n1 ?
Return: 172 to 174 °C

Enquiry: What melting point value was documented for this compound, CCCCCN(C)C12CN3CN(CN(C3)C1)C2 ?
Return: 30 to 31 °C

Enquiry: What melting point value was documented for this compound, CCCc1cc2cc(O)ccc2c(Oc2ccc(/C=C/C(=O)O)cc2)c1-c1ccccc1 ?
Return: 120 to 122 °C

Enquiry: What melting point value was documented for this compound, Cc1cccc2[nH]c(=O)c(=O)[nH]c12 ?
Return: 325 °C

Enquiry: What melting point value was documented for this compound, O=C(Oc1ccccc1)c1cc2cccc(O)c2[nH]1 ?
Return: 156 to 157 °C

Enquiry: What melting point value was documented for this compound, Cc1cccc(-c2ccccc2)c1NC(=S)NC(=O)c1ccccc1 ?
Return: 172 to 173 °C

Enquiry: What melting point value was documented for this compound, CC(C)(C)OC(=O)NCC1=CC(c2ccccc2)Cc2c1ccc(O)c2O (stereo unspecified) ?
Return: 175 to 177 °C

Enquiry: What melting point value was documented for this compound, CC1(C)CCC(C)(C)c2cc(-c3cc(-c4ccc(C(=O)O)cn4)ccc3-c3ccccc3)ccc21 ?
Return: 105 to 107 °C

Enquiry: What melting point value was documented for this compound, O=C(O)c1cc2c(n(CC3CCCCC3)c1=O)CCCCCC2 ?
Return: 162 to 163 °C

Enquiry: What melting point value was documented for this compound, CCCC(CO)n1cnc(C(N)=O)c1 (stereo unspecified) ?
Return: 160 °C

Enquiry: What melting point value was documented for this compound, CN(C)CCCC#Cc1cnc(N)nc1 ?
Return: 126 to 127 °C

Enquiry: What melting point value was documented for this compound, COc1ccc2c(C=O)c(OCc3ccccc3)ccc2c1 ?
Return: 115 to 117 °C

Enquiry: What melting point value was documented for this compound, COC1c2ccccc2C(c2ccc([N+](=O)[O-])cc2)=NN(c2nc(=O)n(C)s2)C1(C)OC (stereo unspecified) ?
Return: 262 to 263 °C

Enquiry: What melting point value was documented for this compound, COc1ccnc(C(C)Sc2nc3cc(OC(F)F)c(C)cc3[nH]2)c1 (stereo unspecified) ?
Return: 183 to 184 °C

Enquiry: What melting point value was documented for this compound, CCn1nc(C)c(N)c1C(N)=O ?
Return: 143 to 145 °C

Enquiry: What melting point value was documented for this compound, CCN(CC)C(=O)c1nc(-c2ccccc2)nc2ccccc12 ?
Return: 127 °C

Enquiry: What melting point value was documented for this compound, O=S(=O)(NCC1CCOCC1)c1ccc(Cl)cc1 ?
Return: 118 to 119 °C

Enquiry: What melting point value was documented for this compound, CCCN(CCC)Cc1csc(-c2ncn3c2CN(C)C(=O)c2cc(F)ccc2-3)n1 ?
Return: 134 to 136 °C

Enquiry: What melting point value was documented for this compound, CCOCCn1c(NC2CCN(CCC3(c4ccc(C)c(C)c4)CCN(C(=O)c4cc(OC)c(OC)c(OC)c4)C3)CC2)nc2ccccc21 (stereo unspecified) ?
Return: 108 to 119 °C

Enquiry: What melting point value was documented for this compound, c1ccc(CN(Cc2ccccc2)c2ccc3sccc3c2)cc1 ?
Return: 114 to 117 °C

Enquiry: What melting point value was documented for this compound, CSc1nn2c(N(C)C)cc(C)nc2c1S(=O)(=O)c1ccccc1 ?
Return: > 230 °C

Enquiry: What melting point value was documented for this compound, CCC1(C)CC2(NC(=O)N(C)C2=O)C(C)C(C)(CC)N1C (stereo unspecified) ?
Return: 190 to 195 °C
